Test system: T1, human soluble urokinase plasminogen activator receptor (hsuPAR) (human, UniProt Q03405 23-303, limits assumed)
T1 construct: Target antigen of the off-rate screen; also called human suPAR; rhuPAR-His
T1 sequence (Q03405 23-303 limits assumed): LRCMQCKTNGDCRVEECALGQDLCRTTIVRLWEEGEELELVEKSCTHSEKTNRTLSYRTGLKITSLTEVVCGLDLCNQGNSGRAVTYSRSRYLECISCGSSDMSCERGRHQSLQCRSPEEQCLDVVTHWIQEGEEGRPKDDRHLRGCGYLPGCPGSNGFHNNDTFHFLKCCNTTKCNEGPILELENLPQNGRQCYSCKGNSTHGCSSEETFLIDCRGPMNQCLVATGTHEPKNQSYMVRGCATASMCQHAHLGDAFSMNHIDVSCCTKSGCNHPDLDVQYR
Assay comment: BLI (Octet) off-rate screen of scFv clones
Here the recorded koff is given for each entry.
Note: unit s⁻¹ is implicit; provide only the numeric part.

**Q:** Which value of koff has been reported for suPAR_DB03_A03 (scFv, V domains shown, screened as scFv) VH: QVQLVQSGAEVKKPGASVKVSCKASGYTFTGYYMHWVRQAPGQGLEWMGWIDHENGSTIYDQKFQGRVTMTRDTSTSTVYMELSSLRSEDTAVYYCAVGYDVDWFVYWGQGTLVTVSS VL: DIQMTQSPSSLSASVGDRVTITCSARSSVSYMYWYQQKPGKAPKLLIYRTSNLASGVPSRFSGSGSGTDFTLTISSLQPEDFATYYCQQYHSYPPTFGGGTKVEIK in the records?
**A:** 0.00199

**Q:** Now consider suPAR_DB03_D03 (scFv, V domains shown, screened as scFv) VH: QVQLVQSGAEVKKPGASVKVSCKASGYTFTGYYIHWVRQAPGQGLEWMGWIDPENGNTIYAQKFQGRVTMTRDTSTSTVYMELSSLRSEDTAVYYCARGYDVDWFVYWGQGTLVTVSS VL: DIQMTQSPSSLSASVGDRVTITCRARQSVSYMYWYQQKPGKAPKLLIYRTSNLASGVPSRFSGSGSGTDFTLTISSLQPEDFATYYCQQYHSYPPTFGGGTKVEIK .
**A:** 0.00258

**Q:** Now consider suPAR_DB03_D04 (scFv, V domains shown, screened as scFv) VH: QVQLVQSGAEVKKPGASVKVSCKASGYTFTNYYMHWVRQAPGQGLEWMGWIDPENGSTIYDQKFQGRVTMTRDTSTSTVYMELSSLRSEDTAVYYCARGYDVDWFVYWGQGTLVTVSS VL: DIQMTQSPSSLSASVGDRVTITCSARSSVSYMYWYQQKPGKAPKLLIYRTSNLASGVPSRFSGSGSGTDFTLTISSLQPEDFATYYCQQSHSYPPTFGGGTKVEIK .
**A:** 0.00325
